Every entry's value here was drawn from ChEMBL document CHEMBL5661979.

- tested_target: Serine/threonine-protein kinase B-raf (Homo sapiens, UniProt P15056)
- Sequence (P15056 whole entry): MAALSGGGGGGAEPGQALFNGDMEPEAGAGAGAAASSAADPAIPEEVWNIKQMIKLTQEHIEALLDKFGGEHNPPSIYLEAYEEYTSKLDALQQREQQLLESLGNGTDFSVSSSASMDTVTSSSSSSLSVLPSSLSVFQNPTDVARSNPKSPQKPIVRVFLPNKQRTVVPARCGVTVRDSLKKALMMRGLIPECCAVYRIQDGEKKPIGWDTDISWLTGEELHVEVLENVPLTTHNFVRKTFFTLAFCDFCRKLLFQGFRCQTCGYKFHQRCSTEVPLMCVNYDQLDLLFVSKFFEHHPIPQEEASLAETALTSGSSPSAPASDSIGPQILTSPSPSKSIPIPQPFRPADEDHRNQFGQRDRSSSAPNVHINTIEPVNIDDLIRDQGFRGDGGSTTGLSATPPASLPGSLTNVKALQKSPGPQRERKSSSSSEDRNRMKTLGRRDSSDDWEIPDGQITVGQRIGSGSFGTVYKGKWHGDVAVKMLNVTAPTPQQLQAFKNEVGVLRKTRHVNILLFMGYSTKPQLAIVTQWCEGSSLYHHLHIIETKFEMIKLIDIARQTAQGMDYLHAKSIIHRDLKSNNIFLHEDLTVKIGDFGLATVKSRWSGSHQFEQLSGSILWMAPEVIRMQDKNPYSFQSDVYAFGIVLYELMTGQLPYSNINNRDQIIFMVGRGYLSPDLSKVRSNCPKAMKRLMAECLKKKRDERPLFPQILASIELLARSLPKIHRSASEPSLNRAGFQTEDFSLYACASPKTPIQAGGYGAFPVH
- measurement_protocol: Inhibition of BRAF in human HeLa cells lysate pre incubated for 15 mins followed by ATP acyl phosphate probe addition and measured after 10 mins by LC-MS/MS analysis
- Type: subcellular
pIC50: −log10 of the molar value.
readout_kind: pIC50

>>> print(df.to_string())
                         structure_notation  recorded_result
0  CCOc1cc(N2CCC(O)CC2)ccc1Nc1ncc2c(n1)N(C)c1ccccc1C(=O)N2C           < 4.30

* * *

- tested_target: Serine/threonine-protein kinase DCLK2 (Homo sapiens, UniProt Q8N568)
- Sequence (Q8N568 whole entry): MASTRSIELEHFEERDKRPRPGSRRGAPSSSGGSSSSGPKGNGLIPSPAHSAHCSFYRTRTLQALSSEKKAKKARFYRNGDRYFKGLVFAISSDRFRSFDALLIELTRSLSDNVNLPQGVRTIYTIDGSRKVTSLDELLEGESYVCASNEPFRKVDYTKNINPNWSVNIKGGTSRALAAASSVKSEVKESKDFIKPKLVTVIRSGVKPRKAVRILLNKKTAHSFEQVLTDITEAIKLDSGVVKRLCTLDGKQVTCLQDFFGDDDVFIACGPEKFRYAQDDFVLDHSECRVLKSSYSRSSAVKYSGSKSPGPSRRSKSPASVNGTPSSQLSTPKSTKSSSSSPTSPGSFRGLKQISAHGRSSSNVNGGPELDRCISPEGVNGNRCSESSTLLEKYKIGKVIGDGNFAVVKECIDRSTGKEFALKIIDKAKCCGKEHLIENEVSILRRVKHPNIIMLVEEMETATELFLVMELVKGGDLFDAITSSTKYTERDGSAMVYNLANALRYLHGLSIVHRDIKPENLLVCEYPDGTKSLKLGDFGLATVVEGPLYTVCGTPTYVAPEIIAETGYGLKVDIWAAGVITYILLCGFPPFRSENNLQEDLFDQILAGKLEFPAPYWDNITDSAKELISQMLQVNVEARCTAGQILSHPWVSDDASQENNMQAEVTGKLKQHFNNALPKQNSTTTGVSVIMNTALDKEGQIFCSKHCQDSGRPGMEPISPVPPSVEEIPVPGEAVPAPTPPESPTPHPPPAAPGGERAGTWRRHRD
readout_kind: Kd (nM)

>>> print(df.to_string())
                         structure_notation  unit_name  recorded_result
0  CCOc1cc(N2CCC(O)CC2)ccc1Nc1ncc2c(n1)N(C)c1ccccc1C(=O)N2C         nM              190

* * *

- tested_target: Mitogen-activated protein kinase kinase kinase 11 (Homo sapiens, UniProt Q16584)
- Sequence (Q16584 whole entry): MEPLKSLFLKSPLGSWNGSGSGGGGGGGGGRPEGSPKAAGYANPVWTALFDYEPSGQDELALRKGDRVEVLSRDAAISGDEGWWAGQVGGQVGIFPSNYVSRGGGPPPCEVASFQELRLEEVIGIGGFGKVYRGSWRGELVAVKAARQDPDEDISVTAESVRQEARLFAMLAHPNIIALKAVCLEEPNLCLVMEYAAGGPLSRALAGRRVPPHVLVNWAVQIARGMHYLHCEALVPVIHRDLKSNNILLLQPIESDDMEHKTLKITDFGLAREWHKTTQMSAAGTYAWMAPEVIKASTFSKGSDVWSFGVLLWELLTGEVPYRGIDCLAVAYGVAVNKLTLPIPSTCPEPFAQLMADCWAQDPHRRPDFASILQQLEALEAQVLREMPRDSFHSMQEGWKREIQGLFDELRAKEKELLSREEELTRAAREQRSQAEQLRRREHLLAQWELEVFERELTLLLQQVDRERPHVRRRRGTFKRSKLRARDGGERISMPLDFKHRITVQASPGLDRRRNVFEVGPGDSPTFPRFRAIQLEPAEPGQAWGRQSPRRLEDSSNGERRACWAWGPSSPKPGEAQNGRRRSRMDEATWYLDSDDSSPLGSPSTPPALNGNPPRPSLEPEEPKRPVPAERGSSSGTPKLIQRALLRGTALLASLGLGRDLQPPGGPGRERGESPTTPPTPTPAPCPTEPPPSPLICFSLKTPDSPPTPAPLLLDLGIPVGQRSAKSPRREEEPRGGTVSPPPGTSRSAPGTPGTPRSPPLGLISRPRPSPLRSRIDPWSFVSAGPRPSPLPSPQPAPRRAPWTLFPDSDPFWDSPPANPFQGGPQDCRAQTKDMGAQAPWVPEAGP
- measurement_protocol: Inhibition of MLK3 in human HeLa cells lysate pre incubated for 15 mins followed by ATP acyl phosphate probe addition and measured after 10 mins by LC-MS/MS analysis
readout_kind: IC50

                         structure_notation  recorded_result
0  CCOc1cc(N2CCC(O)CC2)ccc1Nc1ncc2c(n1)N(C)c1ccccc1C(=O)N2C          > 50 µM

* * *

- tested_target: UniProt P49840
- Sequence (P49840 whole entry): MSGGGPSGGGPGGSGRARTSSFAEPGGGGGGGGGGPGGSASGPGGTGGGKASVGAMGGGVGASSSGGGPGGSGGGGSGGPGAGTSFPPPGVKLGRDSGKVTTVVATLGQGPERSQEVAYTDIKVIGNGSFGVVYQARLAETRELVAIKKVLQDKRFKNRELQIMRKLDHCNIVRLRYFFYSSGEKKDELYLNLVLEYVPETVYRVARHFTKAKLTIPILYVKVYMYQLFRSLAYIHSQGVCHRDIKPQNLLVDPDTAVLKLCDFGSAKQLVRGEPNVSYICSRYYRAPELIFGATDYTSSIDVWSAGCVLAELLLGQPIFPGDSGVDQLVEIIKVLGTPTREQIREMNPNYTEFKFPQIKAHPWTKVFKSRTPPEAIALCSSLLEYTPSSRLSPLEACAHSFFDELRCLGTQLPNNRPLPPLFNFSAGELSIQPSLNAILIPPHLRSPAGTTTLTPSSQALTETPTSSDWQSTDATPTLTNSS
- measurement_protocol: Inhibition of GSK3A in human HeLa cells lysate pre incubated for 15 mins followed by ATP acyl phosphate probe addition and measured after 10 mins by LC-MS/MS analysis
- Assay type: subcellular
readout_kind: IC50

>>> print(df.to_string())
                         structure_notation  recorded_result
0  CCOc1cc(N2CCC(O)CC2)ccc1Nc1ncc2c(n1)N(C)c1ccccc1C(=O)N2C          > 50 µM
